Reference for the values: the supplement of paper PMC10567573

B1: ACBD3 (parent)
chain: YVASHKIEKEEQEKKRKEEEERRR

- Variants of: B1
- Assay notes: protein stability index of a GFP-peptide fusion (GPS, HEK-293T) (PSI 1-6); higher = more stable;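 further: lentivirally expressed fusions sorted by FACS into six bins by GFP to DsRed ratio, PSI derived from sequencing read proportions per bin multiplied by bin number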
- Measurement context: c terminus: a fixed tail appended

{"Record sequence": "YVASHKIEKEEQEKKRKEEEERRD [R24D]", "protein stability index": 3.35}
{"Record sequence": "YVASHKIEKEMQEKKRKEEEERRR [E11M]", "protein stability index": 2.2}
{"Record sequence": "YVASHKIEKEEQEKKRKEEEEDRR [R22D]", "protein stability index": 3.24}
{"Record sequence": "YSASHKIEKEEQEKKRKEEEERRR [V2S]", "protein stability index": 5.25}
{"Record sequence": "YVASHKIEKEEQEKKRPEEEERRR [K17P]", "protein stability index": 3.01}
{"Record sequence": "YVASWKIEKEEQEKKRKEEEERRR [H5W]", "protein stability index": 2}
{"Record sequence": "YVASHKIEKEEQETKRKEEEERRR [K14T]", "protein stability index": 2.44}
{"Record sequence": "YVASHKIEKEEQEKKRREEEERRR [K17R]", "protein stability index": 3.32}
{"Record sequence": "YVASHKIEKEEQEKKRKEEEVRRR [E21V]", "protein stability index": 3.05}
{"Record sequence": "YLASHKIEKEEQEKKRKEEEERRR [V2L]", "protein stability index": 5.22}
{"Record sequence": "YVASHKIEKEEQEKKRKEEEERNR [R23N]", "protein stability index": 2.74}
